Taken from patent US11524012B1.

tested on: various cancer cell lines; assay: Cell viability by Alamar Blue assay; assay type: cell-based; conditions: Homo sapiens, LNCaP, Prostate

{"Compound": "Cc1cnc(CNC(=O)c2c(=O)c3ccc(N4CCCN(C)CC4)nc3n3c2sc2ccccc23)cn1 [Compound I]", "Study System": "various cancer cell lines", "Unit Info": "µM", "EC50": 5.5}

---

test system: various cancer cell lines; assay: Cell viability by Alamar Blue assay; type: cell-based; conditions: Homo sapiens, Daudi, Lymphoma

{"Record Smiles": "Cc1cnc(CNC(=O)c2c(=O)c3ccc(N4CCCN(C)CC4)nc3n3c2sc2ccccc23)cn1", "EC50": "142 nM"}

---

assay: Toxicokinetics in rat toxicity study (IV infusion); format: in vivo; details: plasma; rat, 1 hour IV infusion, 20 mg/kg/dose, Male, Day 1 (first dose)

{"Molecule": "Cc1cnc(CNC(=O)c2c(=O)c3ccc(N4CCCN(C)CC4)nc3n3c2sc2ccccc23)cn1 [Compound I]", "Unit Info": "ng·h/mL", "AUC(0-inf)": 79200}
